For each of the binders below, state its Median:FITC-A.
# measured on: T1, R3 (RHAMM-R3) peptide/HLA-A*02:01 complex on T2 cells (human)
# T1 construct: Control target of the phage staining of T2 cells; also called T2 cells pulsed with R3 peptide; RHAMM 3 (R3)
# experimental protocol: flow cytometry, phage on T2 + R3 peptide; secondary only 123, unstained 99.8
Give bare numbers.

binder	measured attribute	experimental value
EXT017-9 scFv phage clone (scFv, also called phage clone #9) scFv: QSALTQPASASGSPGQSVTISCTGTSSDVGGYNYVSWYQQHPGKAPKLMIYEVSKRPSGVPDRFSGSKSGNTASLTVSGLQAEDEADYYCSSYAGSNNVVFGGGTKLTVLGSRGGGGSGGGGSGGGGSLEMAEVQLVQSGAEVKKPGASVKISCKASRYTFTNYYIHWVRQAPGQGLEWMGIINPSGGSTTYPQNFQGRLTMTRDTSTSTVYMELSSLRSEDTAMYYCARGWSGYDPGDFWGQGTLVTVSSTSGQAGQHHHHHHGAYPYDVPDYAS	Median:FITC-A	144

Let us examine a further case.
Tell me the measured Median:FITC-A of EXT017-21 scFv phage clone (scFv, also called phage clone #21) scFv: SYELTQPPSVSVAPGQTASMTCGGNNIGSKSVHWYQQKPSQAPVMVVHDDSERPSGIPERISGSKSGNTATLTISRVEAGDEADYYCQVWDSSSDHVIFGGGTKLTVLGSRGGGGSGGGGSGGGGSLEMAQVQLVQSGAEVKKPGASVKVSCKASGYTFTNYYIHWVRQAPGQGLEWMGIIRPSGGITNYAQKFQGRVSMTRDTSTSTVYMELSSLRSEDTAVYYCARSWMSDSYYDGWGQGTLVTVSSTSGQAGQHHHHHHGAYPYDVPDYAS , please. 143
